Source: patent US20130109693A1

Tested on: fibroblast
Assay: Cytotoxicity on human cells, fibroblast
Type: cell-based
Settings: exposed 24 h and 48 h, 0.1 to 25 μM
Readout: IC50

Problem: What IC50 value was documented for this compound, Oc1ccc(Nc2ncc3ncc(Cl)cc3n2)cc1 ?
Result: 5 µM

Problem: Moving on to the next compound: Oc1ccc(-c2ncc3ncc(-c4cccs4)cc3n2)cc1
Result: 2 µM

Problem: Moving on to the next compound: Oc1ccccc1-c1cnc2cnc(-c3ccccc3O)nc2c1
Result: > 25 µM

Problem: Moving on to the next compound: COc1ccc(Nc2cnc3c(NCc4ccccc4)nc(NCCO)nc3c2)cc1
Result: 15 µM

Problem: Moving on to the next compound: Oc1ccc(Nc2ncc3ncc(-c4ccc(O)cc4)cc3n2)cc1
Result: 5 µM

Problem: Moving on to the next compound: Oc1ccc(-c2ncc3ncc(-c4ccncc4)cc3n2)cc1
Result: 15 µM

Problem: Moving on to the next compound: OCCNc1nc(NCc2ccccc2)c2ncc(Nc3cnc4ccccc4c3)cc2n1
Result: 2 µM

Problem: Moving on to the next compound: Cc1csc(Nc2cnc3cnc(-c4ccc(O)cc4)nc3c2)n1
Result: > 25 µM

Problem: Moving on to the next compound: Oc1ccc(Nc2ncc3ncc(-c4cccc(O)c4)cc3n2)cc1
Result: 2 µM

====

Readout: melting point

Problem: What melting point value was documented for this compound, Oc1ccc(-c2ncc3ncc(-c4cccc(O)c4)cc3n2)cc1 [Compound 23] ?
Result: 256 to 257 °C

Problem: Moving on to the next compound: COc1cccc(-c2nc(-c3ccccc3)c3ncc(-c4cccs4)cc3n2)c1 [Compound 15]
Result: 140 to 141 °C

Problem: Moving on to the next compound: COc1cccc(-c2nc(-c3ccccc3)c3ncc(Cl)cc3n2)c1 [Compound 6]
Result: 112 to 113 °C

Problem: Moving on to the next compound: Oc1ccc(Nc2cnc3cnc(-c4ccc(O)cc4)nc3c2)cc1 [Compound 58]
Result: 168 to 170 °C

Problem: Moving on to the next compound: Cc1ncccc1Nc1cnc2cnc(-c3ccc(O)cc3)nc2c1 [Compound 53]
Result: 186 to 188 °C

Problem: Moving on to the next compound: Oc1ccc(-c2ncc3ncc(Cl)cc3n2)cc1 [Compound 17]
Result: 231 to 232 °C

Problem: Moving on to the next compound: OCCNc1nc(NCc2ccccc2)c2ncc(Nc3ncccn3)cc2n1 [Compound 87]
Result: 141 to 142 °C

Problem: Moving on to the next compound: Oc1ccc(-c2ncc3ncc(-c4ccoc4)cc3n2)cc1 [Compound 36]
Result: > 268 °C

Problem: Moving on to the next compound: COCOc1ccc(-c2ncc3ncc(NC(=O)c4cccnc4)cc3n2)cc1 [Compound 65]
Result: 232 °C

Problem: Moving on to the next compound: N#Cc1ccc(-c2cnc3cnc(-c4ccc(O)cc4)nc3c2)cc1 [Compound 28]
Result: 313 to 314 °C

Problem: Moving on to the next compound: Oc1ccc(-c2ncc3ccc(-c4csc(CN5CCCCC5)c4)nc3n2)cc1 [Compound 78]
Result: > 268 °C

====

Target: UniProt Q13627
Experiment: DYRK1A kinase inhibition (Woodtide substrate, buffer A)
Details: 15 μM ATP, 30° C., recombinant GST fusion; read-out: IC50 Kinases DYRK1A
pIC50: −log10 of the molar value.
Exercise: for every item that follows, state its recorded pIC50.

Problem: Hello, I am looking for reported pIC50 with UniProt Q13627 for Oc1ccc(Nc2ncc3ncc(-c4ccc(O)cc4)cc3n2)cc1 . Could you help?
Result: < 5.00

Problem: Moving on to the next compound: Oc1ccc(-c2cnc3cnc(-c4ccc(O)cc4)nc3c2)cc1
Result: 6.03

Problem: Moving on to the next compound: Oc1ccc(-c2ncc3ncc(-c4ccco4)cc3n2)cc1
Result: < 5.00

Problem: Moving on to the next compound: COc1ccc(Nc2cnc3c(NCc4ccccc4)nc(NCCO)nc3c2)cc1OC
Result: < 5.00

Problem: Moving on to the next compound: Oc1ccc(-c2ncc3ncc(Nc4ccon4)cc3n2)cc1
Result: 5.70

Problem: Moving on to the next compound: Oc1ccc(Nc2ncc3ncc(Cl)cc3n2)cc1
Result: < 5.00

Problem: Moving on to the next compound: Oc1ccc(-c2ncc3ncc(-c4ccc(C(F)(F)F)cc4)cc3n2)cc1
Result: 4.62

Problem: Moving on to the next compound: COc1ccc(Nc2cnc3cnc(-c4ccc(O)cc4)nc3c2)cc1
Result: < 5.00

====

Exercise: for every item that follows, state its recorded melting point.

Problem: What melting point value was documented for this compound, Clc1cnc2c(-c3ccccc3)nc(-c3ccccc3)nc2c1 ?
Result: 120 to 121 °C

Problem: Moving on to the next compound: COc1ccccc1-c1nc(-c2ccccc2)c2ncc(Cl)cc2n1
Result: 116 to 117 °C

Problem: Moving on to the next compound: Oc1ccccc1-c1cnc2cnc(-c3ccccc3O)nc2c1
Result: 239 to 240 °C

Problem: Moving on to the next compound: O=Cc1cccc(-c2cnc3cnc(-c4ccc(O)cc4)nc3c2)c1
Result: 266 °C

Problem: Moving on to the next compound: N#Cc1cccc(-c2cnc3cnc(-c4ccc(O)cc4)nc3c2)c1
Result: > 268 °C

Problem: Moving on to the next compound: Oc1cccc(-c2cnc3cnc(-c4cccc(O)c4)nc3c2)c1
Result: 264 to 265 °C

Problem: Moving on to the next compound: Oc1ccc(-c2ncc3ncc(-c4ccncc4)cc3n2)cc1
Result: > 268 °C

Problem: Moving on to the next compound: COc1cccc(-c2nc(-c3ccccc3)c3ncc(-c4csc5ccccc45)cc3n2)c1
Result: 112 to 113 °C

Problem: Moving on to the next compound: Oc1ccc(-c2ncc3ncc(-c4cccs4)cc3n2)cc1
Result: 240 to 242 °C

====

Biological target: CDK5 (Homo sapiens, UniProt Q00535)
Sequence (Q00535 whole entry): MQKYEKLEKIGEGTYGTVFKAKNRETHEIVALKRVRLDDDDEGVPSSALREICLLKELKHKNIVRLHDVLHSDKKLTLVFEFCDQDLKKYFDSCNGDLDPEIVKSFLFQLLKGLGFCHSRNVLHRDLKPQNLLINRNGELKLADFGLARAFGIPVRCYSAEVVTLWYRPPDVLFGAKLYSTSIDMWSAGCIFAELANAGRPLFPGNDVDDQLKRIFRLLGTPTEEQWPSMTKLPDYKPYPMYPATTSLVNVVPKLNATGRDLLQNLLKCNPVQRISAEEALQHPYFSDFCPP
Sequence (Q15078 99-307 partner limits assumed): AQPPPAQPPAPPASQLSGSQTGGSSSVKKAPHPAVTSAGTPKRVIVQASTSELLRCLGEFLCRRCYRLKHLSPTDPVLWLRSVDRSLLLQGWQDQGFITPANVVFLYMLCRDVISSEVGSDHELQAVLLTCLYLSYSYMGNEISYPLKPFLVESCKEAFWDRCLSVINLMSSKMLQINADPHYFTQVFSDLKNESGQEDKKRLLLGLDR
Experiment: CDK5 kinase inhibition (histone H1, [γ-33P] ATP, buffer C)
Conditions: 15 μM ATP, 30° C., recombinant; read-out: IC50 Kinases CDK5
pIC50: −log10 of the molar value.
Response key: criterion met means pIC50 >= 6; criterion not met means pIC50 < 6.

Problem: Has Cc1ncccc1Nc1cnc2cnc(-c3ccc(O)cc3)nc2c1 [Compound 53] a recorded pIC50 greater than or equal to 6?
Result: criterion not met

Problem: Moving on to the next compound: Oc1ccc(-c2cnc3cnc(-c4ccc(O)cc4)nc3c2)cc1 [Compound 20]
Result: criterion met

Problem: Moving on to the next compound: Oc1ccc(-c2ncc3ncc(Nc4nc5ccccc5s4)cc3n2)cc1 [Compound 47]
Result: criterion not met

Problem: Moving on to the next compound: Oc1ccccc1-c1cnc2cnc(-c3ccccc3O)nc2c1 [Compound 22]
Result: criterion not met

Problem: Moving on to the next compound: Oc1ccc(-c2ncc3ncc(-c4ccccc4O)cc3n2)cc1 [Compound 24]
Result: criterion met

Problem: Moving on to the next compound: Oc1ccc(-c2ncc3ncc(-c4ccncc4)cc3n2)cc1 [Compound 34]
Result: criterion met

Problem: Moving on to the next compound: Oc1ccc(Nc2ncc3ncc(-c4ccccc4O)cc3n2)cc1 [Compound 60]
Result: criterion not met

Problem: Moving on to the next compound: Oc1ccc(-c2ncc3ncc(Cl)cc3n2)cc1 [Compound 17]
Result: criterion not met

Problem: Moving on to the next compound: COc1ccc(Nc2cnc3c(NCc4ccccc4)nc(NCCO)nc3c2)cc1OC [Compound 85]
Result: criterion not met

Problem: Moving on to the next compound: Oc1cccc(-c2cnc3cnc(-c4cccc(O)c4)nc3c2)c1 [Compound 21]
Result: criterion not met

Problem: Moving on to the next compound: Oc1ccc(-c2ncc3ncc(-c4cccc(O)c4)cc3n2)cc1 [Compound 23]
Result: criterion met

Problem: Moving on to the next compound: Oc1ccc(-c2ncc3ncc(-c4ccco4)cc3n2)cc1 [Compound 35]
Result: criterion not met

Problem: Moving on to the next compound: Oc1ccc(-c2ncc3ncc(Nc4ncccn4)cc3n2)cc1 [Compound 52]
Result: criterion not met

Problem: Moving on to the next compound: Oc1ccc(-c2ncc3ncc(-c4ccsc4)cc3n2)cc1 [Compound 37]
Result: criterion met

Problem: Moving on to the next compound: COc1ccc(Nc2cnc3cnc(-c4ccc(O)cc4)nc3c2)cc1 [Compound 51]
Result: criterion not met

Problem: Moving on to the next compound: N#Cc1ccc(Nc2cnc3cnc(-c4ccc(O)cc4)nc3c2)nc1 [Compound 54]
Result: criterion not met

====

Molecular target: CDK5 (Homo sapiens, UniProt Q00535)
Test: CDK5 kinase inhibition (histone H1, [γ-33P] ATP, buffer C)
Conditions: 15 μM ATP, 30° C., recombinant; read-out: IC50 Kinases CDK5
Readout: pIC50
Notebook: values listed as pIC50 are -log10 of the concentration (mol/L).

Problem: What pIC50 value was documented for this compound, Oc1ccc(-c2ncc3ncc(-c4cccnc4)cc3n2)cc1 [Compound 33] ?
Result: 6.19

Problem: Moving on to the next compound: Oc1ccc(-c2ncc3ncc(-c4cccs4)cc3n2)cc1 [Compound 38]
Result: 6.96

Problem: Moving on to the next compound: CS(=O)(=O)c1ccc(-c2cnc3cnc(-c4ccc(O)cc4)nc3c2)cc1 [Compound 26]
Result: 6.32

Problem: Moving on to the next compound: COc1ccc(-c2cnc3cnc(-c4ccc(O)cc4)nc3c2)cn1 [Compound 32]
Result: 5.92

Problem: Moving on to the next compound: Oc1ccc(-c2ncc3ncc(Nc4ccon4)cc3n2)cc1 [Compound 48]
Result: 5.68
